These data points were gathered from patent US20240216357A1.

- testedSystem: LSD1 (Homo sapiens (Human), UniProt O60341)
- protocolDescription: LSD1 enzyme activity detection (HTRF)
- Type: biochemical
- conditionsUsed: HTRF, H3K4me1 substrate; read-out: Inhibition of enzymatic activity of LSD1 IC50
Where a name gives a salt, the structure may show the parent alone.
observationType: IC50 (nM)
Respond with the bare value in nM.

As a guide, the following entries are already answered.
COc1ccc(-c2c(-c3ccc(C#N)c(F)c3)nc(N3CC4CCC3CC4N)n3ccnc23)cc1O (stereo not shown) [Example 166, hydrochloride]; 1
N#Cc1ccc(-c2cc(C(=O)N3C4CCC3CC(N)C4)sc2-c2cc3[nH]nnc3cc2F)cc1F (stereo not shown) [Example 216, hydrochloride]; 8.14
Cc1ccc(-c2c(-c3ccc(C#N)cc3)cc3c(N4CCC(N)CC4)ccnn23)cc1 [Example 198, hydrochloride]; 174

INPUT: Return reported IC50; argument: COc1ccc(-c2c(-c3ccc(C#N)c(F)c3)nc(N3CCC(N)CC3)c3nc[nH]c23)cc1O [Example 271, hydrochloride]
OUTPUT: 0.5

###

- protocolDescription: Rat PK test (IV and PO)
- conditionsUsed: Male SD rats, PO vs IV
Counter-ions that a name gives are not always drawn.
Give YES when the value for F is at least 20%. Give NO when it is less.

O=C(NC1CCOCC1)c1cc(CN[C@@H]2C[C@H]2c2ccc(F)cc2)nc(-c2ccc(N3CCOCC3)cc2)n1 [Example 246, hydrochloride]; NO
COc1ccc(-c2c(-c3ccc(C#N)c(F)c3)nc(N3CCC(N)CC3)n(C)c2=O)cc1F [(CC90011), reference compound]; NO
Cc1noc2cc(-c3c(-c4ccc(C#N)c(F)c4)nc(N4CCC(N)CC4)n4ccnc34)c(F)cc12; YES
COc1ccc(-c2cnc(N3CCC(N)CC3)c(C#N)c2-c2ccc(C#N)c(F)c2)cc1O [Example 66, hydrochloride]; NO

As a next step, examine the compound that follows.
INPUT: Please tell me: is the compound COc1ccc(-c2c(OC)cc(N3CCC(N)CC3)nc2-c2ccc(C#N)c(F)c2)cc1O at or over 20% in terms of F?
OUTPUT: NO

###

- System: NCI-H1417 cells
- protocolDescription: In vitro cell proliferation detection (CellTiter-Glo, 7 days)
- Type: cell-based
- conditionsUsed: NCI-H1417 cells, 7 days, CellTiter-Glo; read-out: NCI-H1417 proliferation inhibition IC50
Each entry below carries its reported IC50.
Field format: number, assumed nM, no unit text.

INPUT: # get_value(readout= IC50, system= NCI-H1417 cells) for CS(=O)(=O)N1CCN(c2cc(CCCN[C@@H]3C[C@H]3c3ccc(F)cc3)nn(-c3ccc(C#N)cc3)c2=O)CC1 [Example 260]
OUTPUT: 46.1

INPUT: Try the molecule CS(=O)(=O)N1CCN(C(=O)c2cc(CN[C@@H]3C[C@H]3c3ccc(F)cc3)nc(-c3ccccc3)n2)CC1 [Example 1]
OUTPUT: 11.3

INPUT: And the next one, CS(=O)(=O)N1CCN(c2cc(CCCN[C@@H]3C[C@H]3c3ccc(F)cc3)nc(-c3ccc(C#N)cc3)n2)CC1 [Example 261] ?
OUTPUT: 3.22

###

- testedSystem: LSD1 (Homo sapiens (Human), UniProt O60341)
- protocolDescription: LSD1 enzyme activity detection (HTRF)
- Format: biochemical
- conditionsUsed: HTRF, H3K4me1 substrate; read-out: Inhibition of enzymatic activity of LSD1 IC50
// NB: equality with 0.5 nM counts as False; only IC50 strictly below is True

INPUT: hey, is IC50 for N#CCn1ncc2cc(F)c(-c3sc(C(=O)N4C5CCC4CC(N)C5)cc3-c3ccc(C#N)c(F)c3)cc21 (stereo not shown) lower than 0.5 nM or not?
OUTPUT: True

INPUT: Please do the same for N#Cc1ccc(-c2nc(N3CCC(N)CC3)cc(O)c2-c2ccc(Cl)c(O)c2)cc1F as well.
OUTPUT: False
